system: TNF-α; test: TNF-α inhibition assay in LPS-stimulated whole blood; assay type: cell-based, human; conditions: LPS-induced TNF-α in whole blood; potency relative to compound 401, FIG. 1
metric: activity (relative potency) in the TNF-α inhibition assay

[
  {
    "molecule": "CC(=O)CCCCn1c(=O)c2c(ncn2C)n(C)c1=O",
    "endpointValue": "comparable activity"
  },
  {
    "molecule": "Cn1cnc2c1c(=O)n(CCCCC(O)CO)c(=O)n2C (centres unmarked)",
    "endpointValue": "comparable activity"
  }
]
